Molecular target: 3CL-Pro SARS-CoV-2 (Severe acute respiratory syndrome coronavirus 2, UniProt P0DTD1)
pIC50: −log10 of the molar value.
MEASUREMENT LABEL: pIC50

Consider the compound "O=C1[C@@H]2[C@H]3CC[C@H](C3)[C@@H]2C(=O)N1C[C@@H]1CCCC[C@H]1CN1CCN(c2nsc3ccccc23)CC1" tested on 3CL-Pro SARS-CoV-2 (Severe acute respiratory syndrome coronavirus 2, UniProt P0DTD1); state its pIC50.
< 4.00

----------
Biological target: PL-Pro SARS-CoV-2 (Severe acute respiratory syndrome coronavirus 2)
Construct: purified recombinant SARS-CoV-2 RdRp, 3CL-Pro and PL-Pro proteins
Assay: Biochemical assay for SARS-CoV-2 PL-Pro
MEASUREMENT LABEL: pIC50
pIC50 is a log-scale quantity: -log10 of the concentration expressed in molar.

Determine its reported pIC50: O=C1[C@@H]2[C@H]3CC[C@H](C3)[C@@H]2C(=O)N1C[C@@H]1CCCC[C@H]1CN1CCN(c2nsc3ccccc23)CC1 [Lurasidone, lurasidone]
6.92
